These data points were gathered from a collection of fitness landscapes (doi:10.1016/j.celrep.2020.107928).

B1: Caulobacter ParB omega fusion; a variant is named by its letters at X, in order, B8GW30 (parent)
chain: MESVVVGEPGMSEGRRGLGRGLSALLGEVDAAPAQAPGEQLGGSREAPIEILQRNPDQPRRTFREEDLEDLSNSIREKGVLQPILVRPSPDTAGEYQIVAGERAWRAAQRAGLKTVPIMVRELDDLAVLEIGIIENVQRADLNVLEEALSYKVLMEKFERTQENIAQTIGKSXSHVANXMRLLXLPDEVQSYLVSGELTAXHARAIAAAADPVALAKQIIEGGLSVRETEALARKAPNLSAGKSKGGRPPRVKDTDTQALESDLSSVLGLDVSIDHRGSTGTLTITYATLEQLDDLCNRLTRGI

# Variants of: B1
# experiment.summary: one-hybrid fitness for binding NBS DNA (the Noc-binding site; scaled: cognate 1, non-cognate 0); higher = stronger binding
# condition.summary: with NBS DNA site
In all, about 81,000 sequences were measured (“one-hybrid fitness for binding NBS DNA”: median about -0.1, highest 2% from about 0.36 on). The list comes from a sample in which the highest values are over-represented; it also holds close analogues and randomly drawn sequences.
recorded.metric: one-hybrid fitness for binding NBS DNA

IN: Entry SYTG : reported one-hybrid fitness for binding NBS DNA = ?
OUT: ≤ 0.2

IN: Follow-up entry: KQTL
OUT: ≤ 0.2

IN: Follow-up entry: RIHH
OUT: ≤ 0.2

IN: Follow-up entry: QMKS
OUT: 0.668

IN: Follow-up entry: QMKN
OUT: 0.4

IN: Follow-up entry: THQS
OUT: ≤ 0.2

IN: Follow-up entry: QSRM
OUT: 0.402

IN: Follow-up entry: QMKP
OUT: 0.277

IN: Follow-up entry: QMKQ
OUT: 0.417

IN: Follow-up entry: TTTF
OUT: ≤ 0.2

IN: Follow-up entry: RKEP
OUT: ≤ 0.2

IN: Follow-up entry: QYYH
OUT: ≤ 0.2

IN: Follow-up entry: RSET
OUT: ≤ 0.2

IN: Follow-up entry: QPYA
OUT: ≤ 0.2

IN: Follow-up entry: SFKI
OUT: ≤ 0.2

IN: Follow-up entry: TYVC
OUT: ≤ 0.2

IN: Follow-up entry: RKET
OUT: 0.528

IN: Follow-up entry: RIHR
OUT: 0.477

IN: Follow-up entry: QSDM
OUT: ≤ 0.2

IN: Follow-up entry: QYRP
OUT: 0.216

IN: Follow-up entry: RKED
OUT: ≤ 0.2

IN: Follow-up entry: RINY
OUT: ≤ 0.2

IN: Follow-up entry: QYRH
OUT: 0.541

IN: Follow-up entry: RIQR
OUT: 0.38

IN: Follow-up entry: QYYS
OUT: 0.312

IN: Follow-up entry: QREA
OUT: 0.288

IN: Follow-up entry: SRPI
OUT: ≤ 0.2

IN: Follow-up entry: QMDM
OUT: ≤ 0.2

IN: Follow-up entry: RKEN
OUT: ≤ 0.2

IN: Follow-up entry: RKEC
OUT: ≤ 0.2

IN: Follow-up entry: RIHP
OUT: ≤ 0.2

IN: Follow-up entry: QTTI
OUT: ≤ 0.2

IN: Follow-up entry: QMVS
OUT: 0.282

IN: Follow-up entry: QYRD
OUT: ≤ 0.2

IN: Follow-up entry: RIYR
OUT: 0.377

IN: Follow-up entry: RIQD
OUT: ≤ 0.2

IN: Follow-up entry: QYRN
OUT: 0.38

IN: Follow-up entry: KIPV
OUT: ≤ 0.2

IN: Follow-up entry: QMRM
OUT: 0.45

IN: Follow-up entry: PNYV
OUT: ≤ 0.2

IN: Follow-up entry: PGLH
OUT: ≤ 0.2

IN: Follow-up entry: QYIS
OUT: 0.202

IN: Follow-up entry: RISR
OUT: 0.386

IN: Follow-up entry: RISD
OUT: ≤ 0.2

IN: Follow-up entry: QYDH
OUT: ≤ 0.2

IN: Follow-up entry: PYWD
OUT: ≤ 0.2
